- tested.system: Cystine/glutamate transporter (Homo sapiens, UniProt Q9UPY5)
- Sequence (Q9UPY5 whole entry): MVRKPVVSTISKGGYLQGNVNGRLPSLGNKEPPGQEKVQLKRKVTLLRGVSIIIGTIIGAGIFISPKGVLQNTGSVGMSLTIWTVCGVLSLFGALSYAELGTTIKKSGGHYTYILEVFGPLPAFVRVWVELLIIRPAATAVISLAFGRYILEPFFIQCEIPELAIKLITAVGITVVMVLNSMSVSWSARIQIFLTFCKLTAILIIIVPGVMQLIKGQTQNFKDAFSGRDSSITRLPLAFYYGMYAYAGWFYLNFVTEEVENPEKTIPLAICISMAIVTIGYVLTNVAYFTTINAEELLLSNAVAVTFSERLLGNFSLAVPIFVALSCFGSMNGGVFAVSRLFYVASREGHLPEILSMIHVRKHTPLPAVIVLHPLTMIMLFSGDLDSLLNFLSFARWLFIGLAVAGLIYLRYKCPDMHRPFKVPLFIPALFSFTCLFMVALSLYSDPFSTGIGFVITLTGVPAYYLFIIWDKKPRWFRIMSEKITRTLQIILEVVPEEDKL
- test.summary: Inhibition of xc-cystine-glutamate antiporter-mediated cystine uptake in human U87 cells using L-[14C]cystine as substrate after 15 mins by liquid scintillation counting
pIC50: −log10 of the molar value.
value.kind: pIC50

Before answering, review these 3 worked examples.
{"smiles.data": "O=C(O)c1cc(/N=N/c2ccccc2)ccc1O", "value.measured": 3.70}
{"smiles.data": "O=C(O)c1cc(C#Cc2ccccc2)ccc1O", "value.measured": 3.82}
{"smiles.data": "O=C(O)c1cccc(C#Cc2ccccc2)c1", "value.measured": 3.57}

I: O=C(O)c1cc(/N=N/c2ccc(S(=O)(=O)Nc3ccccn3)cc2)ccc1O
II: O=C(O)c1cc(/C=C/c2ccc(S(=O)(=O)Nc3ccccn3)cc2)ccc1O
III: O=C(O)c1cc(CCc2ccc(S(=O)(=O)Nc3ccccn3)cc2)ccc1O
Inquiry: Rank by pIC50 (largest to smallest). A complete answer lists every label in the requested sequence.
Reply text: I, II, III
(I: 4.52, II: 4.15, III: 3.15)

I: COC(=O)c1cc(/C=C/c2ccc(S(=O)(=O)Nc3ccccn3)cc2)ccc1O
II: O=C(O)c1cc(C#Cc2ccc(S(=O)(=O)Nc3ccccn3)cc2)ccc1O
III: Cc1cccnc1NS(=O)(=O)c1ccc(C#Cc2ccc(O)c(C(=O)O)c2)cc1
IV: N[C@H](C(=O)O)c1ccc(C(=O)O)cc1
Inquiry: # ascending order, key=pIC50 A complete answer lists every label in the requested sequence.
Reply text: I, III, II, IV
(I: 3.05, III: 4.15, II: 4.52, IV: 4.82)

a: O=C(O)c1cccc(CCc2ccc(S(=O)(=O)Nc3ccccn3)cc2)c1
b: O=C(O)c1cccc(C#Cc2ccc(S(=O)(=O)Nc3ccccn3)cc2)c1
Inquiry: For this pair, a and b , which shows a numerically higher pIC50? Provide the label of your selected option as the answer.
Reply text: b
